- Tested on: NCI-H1792
- Assay notes: relative viability (nuclei count vs DMSO), 5 days (fraction); higher = more cells survive
- Condition: first compound 0.1 µM
Parameter: relative viability. Scope: all listed entries.
I'd appreciate a reply containing only the number, no unit.

Below, 3 compounds whose answers are already recorded.
Cc1cn(-c2cc(NC(=O)c3ccc(C)c(Nc4nccc(-c5cccnc5)n4)c3)cc(C(F)(F)F)c2)cn1 [Nilotinib] + CC1(C)CCC(c2ccc(Cl)cc2)=C(CN2CCN(c3ccc(C(=O)NS(=O)(=O)c4ccc(N[C@H](CCN5CCOCC5)CSc5ccccc5)c(S(=O)(=O)C(F)(F)F)c4)cc3)CC2)C1 [Navitoclax] (partner 0.5 µM) | 0.794
Cc1cn(-c2cc(NC(=O)c3ccc(C)c(Nc4nccc(-c5cccnc5)n4)c3)cc(C(F)(F)F)c2)cn1 [Nilotinib] + O=C(c1cc(Cc2n[nH]c(=O)c3ccccc23)ccc1F)N1CCN(C(=O)C2CC2)CC1 [Olaparib] (partner 8 µM) | 0.319
Cc1cn(-c2cc(NC(=O)c3ccc(C)c(Nc4nccc(-c5cccnc5)n4)c3)cc(C(F)(F)F)c2)cn1 [Nilotinib] + Nc1nc2[nH]cc(CCc3ccc(C(=O)N[C@@H](CCC(=O)O)C(=O)O)cc3)c2c(=O)[nH]1 [Pemetrexed] (partner 0.2 µM) | 0.709

Requested read-out: relative viability. Entry: Cc1cn(-c2cc(NC(=O)c3ccc(C)c(Nc4nccc(-c5cccnc5)n4)c3)cc(C(F)(F)F)c2)cn1 [Nilotinib] + CCNC(=O)c1noc(-c2cc(C(C)C)c(O)cc2O)c1-c1ccc(CN2CCOCC2)cc1 [Luminespib] (partner 0.01 µM)
0.266

Ok, now Cc1cn(-c2cc(NC(=O)c3ccc(C)c(Nc4nccc(-c5cccnc5)n4)c3)cc(C(F)(F)F)c2)cn1 [Nilotinib] + NC(=O)Nc1cc(-c2cccc(F)c2)sc1C(=O)N[C@H]1CCCNC1 [AZD7762] (partner 0.2 µM)
0.263

Ok, now Cc1cn(-c2cc(NC(=O)c3ccc(C)c(Nc4nccc(-c5cccnc5)n4)c3)cc(C(F)(F)F)c2)cn1 [Nilotinib] + C[C@@H](Oc1cc(-c2cnn(C3CCNCC3)c2)cnc1N)c1c(Cl)ccc(F)c1Cl [Crizotinib] (partner 1 µM)
1.16

###

- Test system: HCC-15
- Assay notes: relative viability (nuclei count vs DMSO), 5 days (fraction); higher = more cells survive
- Condition: first compound 2 µM
Readout kind: relative viability
I'd appreciate a reply containing only the number, no unit.

Cc1csc(=NC2CCCCC2)n1/N=C/c1ccc(O)c(O)c1O [MIM1] + Nc1ncn([C@H]2C[C@H](O)[C@@H](CO)O2)c(=O)n1 [Decitabine] (partner 2 µM) | 0.66

Requested read-out: relative viability. Entry: Cc1csc(=NC2CCCCC2)n1/N=C/c1ccc(O)c(O)c1O [MIM1] + O=C(c1cc(Cc2n[nH]c(=O)c3ccccc23)ccc1F)N1CCN(C(=O)C2CC2)CC1 [Olaparib] (partner 8 µM)
0.749

Ok, now Cc1csc(=NC2CCCCC2)n1/N=C/c1ccc(O)c(O)c1O [MIM1] + COc1cccc2cc(-c3nc([C@H]4CC[C@H](C(=O)O)CC4)n4ncnc(N)c34)[nH]c12 [OSI-027] (partner 0.5 µM)
0.778

Ok, now CN1CCN(CCOc2cc(OC3CCOCC3)c3c(Nc4c(Cl)ccc5c4OCO5)ncnc3c2)CC1 [Saracatinib] + N=C(N)NC(=N)NCCc1ccccc1 [Phenformin] (partner 250 µM)
0.329

Ok, now Cc1csc(=NC2CCCCC2)n1/N=C/c1ccc(O)c(O)c1O [MIM1] + O=C(CCCCCCC(=O)Nc1ccccc1)NO [Vorinostat] (partner 1 µM)
0.87

###

Parameter: relative viability. Scope: all listed entries.
- Tested on: NCI-H1666
- Assay notes: relative viability (nuclei count vs DMSO), 5 days (fraction); higher = more cells survive
- Condition: first compound 0.6325 µM
I'd appreciate a reply containing only the number, no unit.

Cc1csc(=NC2CCCCC2)n1/N=C/c1ccc(O)c(O)c1O [MIM1] + COc1cc2c(Oc3ccc(NC(=O)C4(C(=O)Nc5ccc(F)cc5)CC4)cc3F)ccnc2cc1OCCCN1CCOCC1 [Foretinib] (partner 0.25 µM) | 0.962

Next molecule, relative viability to be filled in.
Requested read-out: relative viability. Entry: CN1CCN(CCOc2cc(OC3CCOCC3)c3c(Nc4c(Cl)ccc5c4OCO5)ncnc3c2)CC1 [Saracatinib] + Nc1nc2[nH]cc(CCc3ccc(C(=O)N[C@@H](CCC(=O)O)C(=O)O)cc3)c2c(=O)[nH]1 [Pemetrexed] (partner 0.2 µM)
0.878

###

- Tested on: 201T
- Assay notes: relative viability (nuclei count vs DMSO), 5 days (fraction); higher = more cells survive
- Condition: first compound 0.253 µM
Readout kind: relative viability
I'd appreciate a reply containing only the number, no unit.

Nc1cccc2c1CN(C1CCC(=O)NC1=O)C2=O (centres undefined) [Lenalidomide] + CC1(C)CCC(c2ccc(Cl)cc2)=C(CN2CCN(c3ccc(C(=O)NS(=O)(=O)c4ccc(N[C@H](CCN5CCOCC5)CSc5ccccc5)c(S(=O)(=O)C(F)(F)F)c4)cc3)CC2)C1 [Navitoclax] (partner 0.5 µM) | 1.21
Nc1cccc2c1CN(C1CCC(=O)NC1=O)C2=O (centres undefined) [Lenalidomide] + C[C@]1(O)C[C@@H](c2nc(-c3ccc4ccc(-c5ccccc5)nc4c3)c3c(N)nccn32)C1 [Linsitinib] (partner 1 µM) | 1.08
Nc1cccc2c1CN(C1CCC(=O)NC1=O)C2=O (centres undefined) [Lenalidomide] + CC(=O)c1c(C)c2cnc(Nc3ccc(N4CCNCC4)cn3)nc2n(C2CCCC2)c1=O [Palbociclib] (partner 0.5 µM) | 0.394

Next compound, relative viability to be filled in.
Requested read-out: relative viability. Entry: Nc1cccc2c1CN(C1CCC(=O)NC1=O)C2=O (centres undefined) [Lenalidomide] + Cc1nc(Nc2ncc(C(=O)Nc3c(C)cccc3Cl)s2)cc(N2CCN(CCO)CC2)n1 [Dasatinib] (partner 0.075 µM)
0.598

###

- Test system: NCI-H1299
- Assay notes: relative viability (nuclei count vs DMSO), 5 days (fraction); higher = more cells survive
- Condition: first compound 0.253 µM
Readout kind: relative viability

Nc1cccc2c1CN(C1CCC(=O)NC1=O)C2=O (centres undefined) [Lenalidomide] + C[C@@H](Oc1cc(-c2cnn(C3CCNCC3)c2)cnc1N)c1c(Cl)ccc(F)c1Cl [Crizotinib] (partner 1 µM) | 0.978
Nc1cccc2c1CN(C1CCC(=O)NC1=O)C2=O (centres undefined) [Lenalidomide] + CC(C)C[C@H](NC(=O)[C@H](Cc1ccccc1)NC(=O)c1cnccn1)B(O)O [Bortezomib] (partner 0.002 µM) | 1.03
Nc1cccc2c1CN(C1CCC(=O)NC1=O)C2=O (centres undefined) [Lenalidomide] + CC1(C)CCC(c2ccc(Cl)cc2)=C(CN2CCN(c3ccc(C(=O)NS(=O)(=O)c4ccc(N[C@H](CCN5CCOCC5)CSc5ccccc5)c(S(=O)(=O)C(F)(F)F)c4)cc3)CC2)C1 [Navitoclax] (partner 0.5 µM) | 1.05

Requested read-out: relative viability. Entry: Nc1cccc2c1CN(C1CCC(=O)NC1=O)C2=O (centres undefined) [Lenalidomide] + O=C(c1cc(Cc2n[nH]c(=O)c3ccccc23)ccc1F)N1CCN(C(=O)C2CC2)CC1 [Olaparib] (partner 8 µM)
0.938

###

- Tested on: ABC-1
- Assay notes: relative viability (nuclei count vs DMSO), 5 days (fraction); higher = more cells survive
- Condition: first compound 0.8 µM
Parameter: relative viability. Scope: all listed entries.
I'd appreciate a reply containing only the number, no unit.

Below, 3 compounds whose answers are already recorded.
Nc1cccc2c1CN(C1CCC(=O)NC1=O)C2=O (centres undefined) [Lenalidomide] + CS(=O)(=O)N1CCN(Cc2cc3nc(-c4cccc5[nH]ncc45)nc(N4CCOCC4)c3s2)CC1 [Pictilisib] (partner 1 µM) | 0.626
Nc1cccc2c1CN(C1CCC(=O)NC1=O)C2=O (centres undefined) [Lenalidomide] + O=C(CCCCCCC(=O)Nc1ccccc1)NO [Vorinostat] (partner 1 µM) | 1.1
Nc1cccc2c1CN(C1CCC(=O)NC1=O)C2=O (centres undefined) [Lenalidomide] + N=C(N)NC(=N)NCCc1ccccc1 [Phenformin] (partner 250 µM) | 0.216

Next compound, relative viability to be filled in.
Requested read-out: relative viability. Entry: Nc1cccc2c1CN(C1CCC(=O)NC1=O)C2=O (centres undefined) [Lenalidomide] + Cc1cc(Nc2cc(N3CCN(C)CC3)nc(Sc3ccc(NC(=O)C4CC4)cc3)n2)n[nH]1 [Tozasertib] (partner 0.1 µM)
0.17

###

- Test system: ChaGo-K-1
- Assay notes: relative viability (nuclei count vs DMSO), 5 days (fraction); higher = more cells survive
- Condition: first compound 0.6325 µM
Parameter: relative viability. Scope: all listed entries.
I'd appreciate a reply containing only the number, no unit.

CN1CCN(CCOc2cc(OC3CCOCC3)c3c(Nc4c(Cl)ccc5c4OCO5)ncnc3c2)CC1 [Saracatinib] + N=C(N)NC(=N)NCCc1ccccc1 [Phenformin] (partner 250 µM) | 0.447
Cc1csc(=NC2CCCCC2)n1/N=C/c1ccc(O)c(O)c1O [MIM1] + Cc1cc(Nc2cc(N3CCN(C)CC3)nc(Sc3ccc(NC(=O)C4CC4)cc3)n2)n[nH]1 [Tozasertib] (partner 0.1 µM) | 0.232
CN1CCN(CCOc2cc(OC3CCOCC3)c3c(Nc4c(Cl)ccc5c4OCO5)ncnc3c2)CC1 [Saracatinib] + O=C(c1cc(Cc2n[nH]c(=O)c3ccccc23)ccc1F)N1CCN(C(=O)C2CC2)CC1 [Olaparib] (partner 8 µM) | 0.413
Cc1csc(=NC2CCCCC2)n1/N=C/c1ccc(O)c(O)c1O [MIM1] + NC(=O)Nc1cc(-c2cccc(F)c2)sc1C(=O)N[C@H]1CCCNC1 [AZD7762] (partner 0.2 µM) | 0.883
CN1CCN(CCOc2cc(OC3CCOCC3)c3c(Nc4c(Cl)ccc5c4OCO5)ncnc3c2)CC1 [Saracatinib] + COc1cccc2cc(-c3nc([C@H]4CC[C@H](C(=O)O)CC4)n4ncnc(N)c34)[nH]c12 [OSI-027] (partner 0.5 µM) | 0.519

Requested read-out: relative viability. Entry: Cc1csc(=NC2CCCCC2)n1/N=C/c1ccc(O)c(O)c1O [MIM1] + CC(=O)Nc1cccc(-n2c(=O)n(C3CC3)c(=O)c3c(Nc4ccc(I)cc4F)n(C)c(=O)c(C)c32)c1 [Trametinib] (partner 0.02 µM)
0.913

Ok, now CN1CCN(CCOc2cc(OC3CCOCC3)c3c(Nc4c(Cl)ccc5c4OCO5)ncnc3c2)CC1 [Saracatinib] + Nc1nc2[nH]cc(CCc3ccc(C(=O)N[C@@H](CCC(=O)O)C(=O)O)cc3)c2c(=O)[nH]1 [Pemetrexed] (partner 0.2 µM)
0.26

Ok, now CN1CCN(CCOc2cc(OC3CCOCC3)c3c(Nc4c(Cl)ccc5c4OCO5)ncnc3c2)CC1 [Saracatinib] + Cc1cc(Nc2cc(N3CCN(C)CC3)nc(Sc3ccc(NC(=O)C4CC4)cc3)n2)n[nH]1 [Tozasertib] (partner 0.1 µM)
0.218

Ok, now CN1CCN(CCOc2cc(OC3CCOCC3)c3c(Nc4c(Cl)ccc5c4OCO5)ncnc3c2)CC1 [Saracatinib] + CC(C)C[C@H](NC(=O)[C@H](Cc1ccccc1)NC(=O)c1cnccn1)B(O)O [Bortezomib] (partner 0.002 µM)
1.05

Value source: the supplement of paper PMC10307832
